biological target: HLA-A*2402 (human); test: iTopia affinity;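 also: peptide binding to HLA-A*2402 measured in iTopia kit format across eight serial peptide dilutions, ED50 derived from the resulting titration curve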
measured metric: ED50 (µM)
Write down the numeric answer in µM and omit the unit.

get_value(item= QHFVYDHVF [cdr2 169-177 QHFVYDHVF] , readout=ED50) returns 3.1

get_value(item= PFKEPSQSL [cdr2 282-290 PFKEPSQSL] , readout=ED50) returns 0.49

get_value(item= MYTTNQEQL [cdr2 52-60 MYTTNQEQL] , readout=ED50) returns 0.54

get_value(item= ECLQTNIDH [cdr2 120-128 ECLQTNIDH] , readout=ED50) returns 18
